study.system: CDK8/Cyclin C (Homo sapiens) (UniProt P49336+P24863)
measurement.notes: Inhibition of human CDK8/Cyc C expressed in Sf21 cells at 1 uM measured after 1 hr by fluorescence plate reader relative to control

{"columns": ["smiles.string", "inhibition [%]"],
 "data": [
  ["O=C(/C=C/c1cnccc1-c1cnn(C2CC2)c1)Nc1ccc(COC(F)F)cc1", 97],
  ["O=C(/C=C/c1cnccc1-c1cnn(C2CC2)c1)Nc1ccc(CN2CC(F)C2)cc1", 107],
  ["O=C(/C=C/c1cnccc1-c1cnn(C2CC2)c1)Nc1ccc(C2CC2)cc1", 95],
  ["O=C(/C=C/c1cnccc1-c1cnn(C2CC2)c1)Nc1ccc2c(c1)CN(CC(F)(F)CO)C2", 102],
  ["O=C(/C=C/c1cnccc1-c1cnn(C2CC2)c1)Nc1ccc2c(c1)CN(C(=O)C(F)(F)F)CC2", 98]
]}

###

study.system: CDK8/Cyclin C (Homo sapiens) (UniProt P49336+P24863)
measurement.notes: Inhibition of human CDK8/Cyc C expressed in Sf21 cells at 1 uM measured after 1 hr by fluorescence plate reader relative to control
The entries below are paired with their reported inhibition.

{"columns": ["smiles.string", "inhibition (%)"],
 "data": [
  ["Cn1cc(-c2ccncc2/C=C/C(=O)Nc2ccc(CCN3CCOCC3)cc2)cn1", 96],
  ["O=C(/C=C/c1cnccc1-c1ccc2nccn2c1)Nc1ccc(CN2CCOCC2)cc1", 101],
  ["Cc1ccc(NC(=O)/C=C/c2cnccc2-c2cn[nH]c2)c(F)c1", 100],
  ["Cn1cnc2ccc(-c3c(F)cncc3/C=C/C(=O)Nc3ccc(CN4CC(F)(F)C4)cc3)cc21", 87],
  ["Cn1cc(-c2c(F)cncc2/C=C/C(=O)Nc2ccc3c(c2)CN(CC(C)(F)F)C3)cn1", 106]
]}

###

study.system: CDK8/Cyclin C (Homo sapiens) (UniProt P49336+P24863)
measurement.notes: Inhibition of human CDK8/Cyc C expressed in Sf21 cells at 1 uM measured after 1 hr by fluorescence plate reader relative to control
The entries below are paired with their reported inhibition.

{"columns": ["compound", "unit.tag", "inhibition"],
 "data": [
  ["O=C(/C=C/c1cnccc1-c1cnn(CC2CC2)c1)Nc1ccc(CN2CCOCC2)cc1", "%", 98],
  ["Cn1cc(-c2ccncc2/C=C/C(=O)Nc2ccc3c(c2)OCC3)cn1", "%", 100],
  ["Cc1noc(C)c1-c1ccc(NC(=O)/C=C/c2cnccc2-c2cnn(C3CC3)c2)c(F)c1", "%", 103],
  ["Cn1cc(-c2ccncc2/C=C/C(=O)Nc2ccc3c(c2)CN(CC(F)(F)F)CC3)cn1", "%", 102],
  ["CC1CN(Cc2ccc(NC(=O)/C=C/c3cnccc3-c3cnn(C)c3)cc2)CCO1 (stereo not drawn)", "%", 99],
  ["Cn1cc(-c2c(F)cncc2/C=C/C(=O)Nc2ccc3c(c2)CN(CC(F)(F)F)C3)cn1", "%", 106],
  ["Cn1cc(-c2ccncc2/C=C/C(=O)Nc2ccc(CN3CCOCC3)c(O)c2)cn1", "%", 97],
  ["O=C(/C=C/c1cncc(F)c1-c1cnn(C2CC2)c1)Nc1ccc(CN2CCOCC2)cc1F", "%", 101],
  ["O=C(/C=C/c1cnccc1-c1cnn(C2CC2)c1)Nc1ccc2c(c1)CN(CC(F)(F)F)CC2", "%", 98],
  ["COC(C)c1ccc(NC(=O)/C=C/c2cnccc2-c2cnn(C3CC3)c2)cc1 (stereo not drawn)", "%", 102],
  ["O=C(/C=C/c1cnccc1-c1cnn(C2CC2)c1)Nc1ccc(CN2CCOCC2)cc1", "%", 92],
  ["O=C(/C=C/c1cnccc1-c1cnn(C2CC2)c1)Nc1ccc2c(c1)CCN(CC(F)(F)F)C2", "%", 103],
  ["Cn1cc(-c2ccncc2/C=C/C(=O)Nc2ccc3c(c2)CN(CC(F)(F)F)C3)cn1", "%", 98],
  ["O=C(/C=C/c1cncc(F)c1-c1cnn(C2CC2)c1)Nc1ccc2c(c1)CN(CC(F)(F)F)C2", "%", 104],
  ["Cn1cc(-c2c(F)cncc2/C=C/C(=O)Nc2ccc(CN3CCOCC3)cc2F)cn1", "%", 98],
  ["Cn1cnc2ccc(-c3ccncc3/C=C/C(=O)Nc3ccc4c(ccn4CC(F)(F)F)c3)cc21", "%", 85],
  ["Cn1cc(-c2ccncc2/C=C/C(=O)Nc2ccc(CN3CCOCC3)c(F)c2)cn1", "%", 99],
  ["CC(c1ccc(NC(=O)/C=C/c2cnccc2-c2cnn(C)c2)cc1)N1CCOCC1 (stereo not drawn)", "%", 96],
  ["Cn1cc(-c2ccncc2/C=C/C(=O)Nc2ccc(CN3CCC4(CC3)COC4)cc2)cn1", "%", 97],
  ["Cn1cc(-c2ccncc2/C=C/C(=O)Nc2ccc(CN3CCC(F)(F)C3)cc2)cn1", "%", 99],
  ["CCn1cc(-c2ccncc2/C=C/C(=O)Nc2ccc(CN3CCOCC3)cc2)cn1", "%", 96],
  ["COCc1ccc(NC(=O)/C=C/c2cnccc2-c2cnn(C)c2)cc1", "%", 100],
  ["O=C(/C=C/c1cnccc1-c1cnn(Cc2ccccc2)c1)Nc1ccc(CN2CCOCC2)cc1", "%", 101],
  ["COC(C)(C)Cc1ccc(NC(=O)/C=C/c2cnccc2-c2cnn(C3CC3)c2)cc1", "%", 101],
  ["O=C(/C=C/c1cnccc1-c1cnn(C2CC2)c1)Nc1ccc(CN2CC(F)(F)C2)cc1F", "%", 105],
  ["O=C(/C=C/c1cnccc1-c1ccc2[nH]ncc2c1)Nc1ccc(CN2CCOCC2)cc1", "%", 96],
  ["COC1CN(Cc2ccc(NC(=O)/C=C/c3cncc(F)c3-c3cnn(C4CC4)c3)cc2)C1", "%", 101],
  ["Cn1cc2cc(-c3ccncc3/C=C/C(=O)Nc3ccc(CN4CCOCC4)cc3)ccc2n1", "%", 97],
  ["Cn1cc(-c2ccncc2/C=C/C(=O)Nc2ccc(CNC3CC(F)(F)C3)cc2)cn1", "%", 96],
  ["Cn1cc(-c2ccncc2/C=C/C(=O)Nc2ccc3ncsc3c2)cn1", "%", 94],
  ["Cn1cc(-c2ccncc2/C=C/C(=O)Nc2ccc3c(c2)CN(CC(F)F)C3)cn1", "%", 105],
  ["COC1CN(Cc2ccc(NC(=O)/C=C/c3cncc(F)c3-c3cnn(C4CC4)c3)c(F)c2)C1", "%", 103],
  ["CN(C)CCOc1ccc(NC(=O)/C=C/c2cnccc2-c2cnn(C)c2)cc1", "%", 99],
  ["Cn1cc(-c2c(F)cncc2/C=C/C(=O)Nc2ccc(CN3CCOCC3)cc2)cn1", "%", 100],
  ["COc1ccc(-c2ccncc2/C=C/C(=O)Nc2ccc(CN3CCOCC3)cc2)s1", "%", 93],
  ["CCn1cc(-c2ccncc2CCC(=O)Nc2ccc(CN3CCOCC3)cc2)cn1", "%", 90],
  ["Cn1cc(-c2ccncc2/C=C/C(=O)Nc2ccc(Cn3ccnc3)cc2)cn1", "%", 102],
  ["Cn1cnc2ccc(-c3c(F)cncc3/C=C/C(=O)Nc3ccc4c(c3)CN(CC(F)(F)F)C4)cc21", "%", 101]
]}

###

The entries below are paired with their reported inhibition.
study.system: Cyclin-C/Cyclin-dependent kinase 19 (Homo sapiens) (UniProt Q9BWU1+P24863)
measurement.notes: Inhibition of humanGST-tagged CDK19/Cyc C expressed in Sf21 cells at 1 uM measured after 1 hr by fluorescence plate reader relative to control

{"columns": ["molecule", "inhibition / %"],
 "data": [
  ["CC(=O)N(C)Cc1cc(NC(=O)/C=C/c2cnccc2-c2cnn(C)c2)ccc1C", 93],
  ["Cn1cc(-c2ccncc2/C=C/C(=O)Nc2ccc(CN3CCOCC3)c(C#N)c2)cn1", 99],
  ["O=C(/C=C/c1cnccc1-c1cnn(Cc2ccccn2)c1)Nc1ccc(CN2CCOCC2)cc1", 98],
  ["Cn1cc(-c2ccncc2/C=C/C(=O)Nc2ccc(CCC(F)(F)F)cc2)cn1", 99],
  ["O=C(/C=C/c1cnccc1-c1cnn(C2CC2)c1)Nc1ccc(CN2CC(F)C2)cc1", 99],
  ["Cn1cc(-c2ccncc2/C=C/C(=O)Nc2ccc(CN3CCOC(C)(C)C3)cc2)cn1", 101],
  ["CN(C)CCOc1ccc(NC(=O)/C=C/c2cnccc2-c2cnn(C)c2)cc1", 93],
  ["O=C(/C=C/c1cnccc1-c1cnn(C2CC2)c1)Nc1ccc(CN2CCOCC2)cc1", 102],
  ["O=C(/C=C/c1cnccc1-c1cnn(C2CC2)c1)Nc1ccc2c(c1)CN(C(=O)C(F)(F)F)CC2", 98],
  ["Cn1cc(-c2ccncc2/C=C/C(=O)Nc2cccc(-c3cccnc3)c2)cn1", 78],
  ["Cn1cc(-c2ccncc2/C=C/C(=O)Nc2ccc(CC(F)(F)F)cc2)cn1", 92],
  ["Cn1cc(-c2ccncc2/C=C/C(=O)Nc2ccc(CN3CC4CC3CO4)cc2)cn1 (centres undefined)", 96],
  ["O=C(/C=C/c1cnccc1-c1cncs1)Nc1ccc(CN2CCOCC2)cc1", 97],
  ["O=C(/C=C/c1cnccc1-c1ccc2ncn(CC3CC3)c2c1)Nc1ccc(CN2CCOCC2)cc1", 96],
  ["Cn1cc(-c2ccncc2/C=C/C(=O)Nc2ccc(CN3CCOCC3)c(O)c2)cn1", 99],
  ["Cc1cc(NC(=O)/C=C/c2cnccc2-c2cnn(C)c2)ccc1CN1CCOCC1", 98],
  ["O=C(/C=C/c1cncc(F)c1-c1cnn(C2CC2)c1)Nc1ccc2c(c1)OCCO2", 98],
  ["Cn1cc(-c2ccncc2/C=C/C(=O)Nc2ccc(N3CC(F)(F)C3)cc2)cn1", 99],
  ["CCN1CCc2ccc(NC(=O)/C=C/c3cnccc3-c3cnn(C)c3)cc2C1", 95],
  ["COCCOc1ccc(NC(=O)/C=C/c2cnccc2-c2cnn(C)c2)cc1", 97],
  ["Cn1cc(-c2c(F)cncc2/C=C/C(=O)Nc2ccc3c(c2)CN(CC(F)(F)F)C3)cn1", 104],
  ["CC(C)(O)Cc1ccc(NC(=O)/C=C/c2cnccc2-c2cnn(C3CC3)c2)cc1", 103],
  ["O=C(/C=C/c1cnccc1-c1cnn(C2CC2)c1)Nc1ccc2c(c1)CN(CC(F)(F)F)CC2", 102],
  ["Cn1cc(-c2ccncc2/C=C/C(=O)Nc2ccc(CN3CC4CCC(C3)O4)cc2)cn1", 97],
  ["Cn1cc(-c2ccncc2/C=C/C(=O)Nc2ccc3cnccc3c2)cn1", 99],
  ["COC1CN(Cc2ccc(NC(=O)/C=C/c3cncc(F)c3-c3cnn(C4CC4)c3)c(F)c2)C1", 96],
  ["Cn1cc(-c2ccncc2/C=C/C(=O)Nc2ccc(CN3CCCC3CO)cc2)cn1 (centres undefined)", 93],
  ["COc1ncc(-c2ccncc2/C=C/C(=O)Nc2ccc(CN3CCOCC3)cc2)s1", 98],
  ["Cc1noc(C)c1-c1ccc(NC(=O)/C=C/c2cnccc2-c2cnn(C3CC3)c2)c(F)c1", 98],
  ["Cn1cc(-c2ccncc2/C=C/C(=O)Nc2ccc(CN3CC(F)(F)C3)cc2)cn1", 99],
  ["Cn1cc(-c2ccncc2/C=C/C(=O)Nc2ccc3c(c2)CCN(CC(F)(F)F)C3)cn1", 101],
  ["O=C(/C=C/c1cnccc1-c1cnn(C2CC2)c1)Nc1ccc(COCC(F)(F)F)cc1F", 96],
  ["CCn1cc(-c2ccncc2/C=C/C(=O)Nc2ccc(CN3CCOCC3)cc2)cn1", 100],
  ["O=C(/C=C/c1cnccc1-c1cn[nH]c1)Nc1ccc(CN2CCOCC2)cc1", 99],
  ["Cn1cc(-c2ccncc2/C=C/C(=O)Nc2ccc(CN3CCC4(CC3)COC4)cc2)cn1", 97],
  ["Cn1cc2cc(-c3ccncc3/C=C/C(=O)Nc3ccc(CN4CCOCC4)cc3)ccc2n1", 93],
  ["COC1CN(Cc2ccc(NC(=O)/C=C/c3cncc(F)c3-c3cnn(C4CC4)c3)cc2)C1", 100],
  ["O=C(/C=C/c1cnccc1-c1cnn(C2CC2)c1)Nc1ccc(C2CC2)cc1", 89],
  ["Cn1cc(-c2ccncc2/C=C/C(=O)Nc2ccc3c(c2)OCO3)cn1", 94]
]}

Data credit: ChEMBL document CHEMBL4742385
